Target desc: Hsp90α (Homo sapiens (Human), UniProt P07900)
Method summary: Fluorescence polarization assay (FITC-GDA tracer displacement)
Assay type: binding
Below, each entry is listed alongside its reported Kd.

CC(C)c1cc(C(=O)N2Cc3ccccc3C2)c(O)cc1C=O [CHO] has a reported Kd of 1210 nM

Next:
Please fill in: Kd reported for CC(C)c1cc(C(=O)N2Cc3ccccc3C2)c(O)cc1C=O [Compound 4] = 1550 nM

----------
Measured pKd values are reported for all entries that follow.
Target desc: Hsp90β (Homo sapiens (Human), UniProt P08238)
Sequence (P08238 whole entry): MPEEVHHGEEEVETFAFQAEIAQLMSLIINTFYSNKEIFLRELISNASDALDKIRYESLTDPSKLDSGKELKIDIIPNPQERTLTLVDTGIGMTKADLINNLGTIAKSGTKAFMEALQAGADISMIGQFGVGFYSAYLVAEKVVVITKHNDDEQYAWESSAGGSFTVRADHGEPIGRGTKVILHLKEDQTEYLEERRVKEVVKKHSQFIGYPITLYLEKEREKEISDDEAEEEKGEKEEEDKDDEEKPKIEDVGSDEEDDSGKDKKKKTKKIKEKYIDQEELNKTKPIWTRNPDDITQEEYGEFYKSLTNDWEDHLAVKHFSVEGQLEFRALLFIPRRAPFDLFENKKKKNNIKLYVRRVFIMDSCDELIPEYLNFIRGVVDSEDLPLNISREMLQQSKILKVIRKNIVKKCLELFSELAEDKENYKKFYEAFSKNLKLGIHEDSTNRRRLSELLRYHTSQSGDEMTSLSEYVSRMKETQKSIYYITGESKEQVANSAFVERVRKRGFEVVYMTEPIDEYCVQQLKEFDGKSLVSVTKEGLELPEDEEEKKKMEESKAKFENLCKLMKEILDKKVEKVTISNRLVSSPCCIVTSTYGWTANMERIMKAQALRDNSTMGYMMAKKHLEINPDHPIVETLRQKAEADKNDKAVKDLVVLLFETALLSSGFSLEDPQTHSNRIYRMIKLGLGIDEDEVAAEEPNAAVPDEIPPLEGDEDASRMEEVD
Method summary: Fluorescence polarization assay (FITC-GDA tracer displacement)
Assay type: binding
pKd: −log10 of the molar value.

Consider CCCc1c(O)c(C(=O)N2Cc3ccccc3C2)cc(C(C)C)c1OCOC [KUNB5] . Its measured pKd is 5.20

In plain terms, COCOc1c(C(C)C)cc(C(=O)N2Cc3ccccc3C2)c(O)c1CCO [KUNB7] has a documented pKd of ≤ 4.00

Short answer for CC(C)c1cc(C(=O)N2Cc3ccccc3C2)c(O)c(CN)c1O [KUNB4] : pKd was ≤ 4.00

The molecule listed as C=CCc1c(O)c(C(=O)N2Cc3ccccc3C2)cc(C(C)C)c1OCOC [KUNB6] has a reported pKd of ≤ 4.00
